Reference for the values: patent US10858365B2

# system-tested: mA2a (Mus musculus (Mouse), UniProt Q60613)
# Sequence (Q60613 whole entry): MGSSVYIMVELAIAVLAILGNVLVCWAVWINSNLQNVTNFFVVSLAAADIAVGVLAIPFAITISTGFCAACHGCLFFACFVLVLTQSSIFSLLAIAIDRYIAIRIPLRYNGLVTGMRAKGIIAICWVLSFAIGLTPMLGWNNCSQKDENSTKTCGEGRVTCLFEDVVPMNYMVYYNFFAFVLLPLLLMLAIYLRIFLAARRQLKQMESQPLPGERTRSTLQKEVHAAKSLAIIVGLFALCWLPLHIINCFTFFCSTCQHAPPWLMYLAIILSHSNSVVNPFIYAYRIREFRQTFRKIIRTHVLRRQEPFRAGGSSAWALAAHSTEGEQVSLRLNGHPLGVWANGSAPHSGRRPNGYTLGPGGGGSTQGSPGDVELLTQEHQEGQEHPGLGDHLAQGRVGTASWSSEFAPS
# protocol: cAMP inhibition assay in mA2a/CHO cells
# Assay type: cell-based
# condition-parameters: adenosine stimulation, read-out: cAMP & FLIPR IC50 (nM) mA2a
Measured IC50, listed per entry.
recorded-endpoint: IC50

INSERT INTO measurements (molecule, measured_result) VALUES
  ('Cc1cc(-c2c(-c3ccc(F)cc3)nc(N)n3nc(Cc4ncccc4F)nc23)cc(C)n1 [Example 14]', '18 nM'),
  ('Cn1cc(-c2c(-c3cc(F)cc(F)c3)nc(N)n3nc(Cc4ncccc4F)nc23)ccc1=O [Example 76]', '19 nM'),
  ('Cc1cnc2ccc(-c3c(-c4ccc(F)cc4)nc(N)n4nc(C[C@@H]5CCCN5C)nc34)cn12 [Example 122]', '2.6 nM'),
  ('Cc1cnc2ccc(-c3c(-n4cc(F)cn4)nc(N)n4nc(Cc5ncccc5F)nc34)cn12 [Example 117]', '0.5 nM'),
  ('Cn1cnc2ccc(-c3c(-c4ccc(F)cc4)nc(N)n4nc(Cc5ncccc5F)nc34)cc21 [Example 69]', '0.3 nM'),
  ('Cn1cc(-c2c(-c3ccc(F)c(F)c3)nc(N)n3nc(Cc4ncccc4F)nc23)ccc1=O [Example 39]', '39 nM'),
  ('Cn1cc(-c2c(-c3ccc(F)cc3)nc(N)n3nc(Cc4nccs4)nc23)ccc1=O [Example 42]', '13 nM'),
  ('Cc1cc(-c2c(-c3ncco3)nc(N)n3nc(Cc4c(F)cccc4F)nc23)cc(N)n1 [Example 81]', '164 nM');
